// composite z-score lookup, one value per entry
biological target: Left-right determination factor 2 (Homo sapiens) (UniProt O00292); assay: LEFTY2 binders on small-molecule microarrays, primary screen, biochemical, small-molecule microarray, 635 nm fluorescence scan (AID 1110); details: LEFTY2 binding, higher = more signal
Sequence (O00292 whole entry, looked up): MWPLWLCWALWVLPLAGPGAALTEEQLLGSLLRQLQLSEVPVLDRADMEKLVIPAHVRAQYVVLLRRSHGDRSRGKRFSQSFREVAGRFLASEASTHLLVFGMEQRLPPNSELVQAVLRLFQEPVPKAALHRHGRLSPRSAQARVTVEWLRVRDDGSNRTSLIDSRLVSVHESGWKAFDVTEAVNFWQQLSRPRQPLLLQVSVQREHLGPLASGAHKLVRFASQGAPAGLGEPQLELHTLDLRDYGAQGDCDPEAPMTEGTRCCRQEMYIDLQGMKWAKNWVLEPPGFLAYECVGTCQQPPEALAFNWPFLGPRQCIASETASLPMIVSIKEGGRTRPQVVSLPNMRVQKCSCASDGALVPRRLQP
READOUT KIND: composite z-score

>>> observed_value("COc1cc(OC)c(C(O)C2C=CC3C(=O)N(c4ccccc4)C(=O)C3N2Nc2ccc(C#N)cc2)cc1Br (configuration not stated)")
0.0166
>>> observed_value("COc1cc2c(cc1O)C(C)N(Cc1cc3c(cc1Br)OCO3)CC2 (configuration not stated)")
-0.407
>>> observed_value("COc1ccc([Si](C)(C)[C@@H]2[C@@H](CC(=O)N3CCC[C@H]3CO)O[C@]3(C(=O)N(Cc4ccc(N5C(=O)c6cccc7cccc5c67)cc4)c4ccccc43)[C@H]2C)cc1")
0.515
>>> observed_value("C=CCN1C(=O)[C@@]2(O[C@@H](CCO)[C@H]([Si](C)(C)c3ccc(OC)cc3)[C@H]2C)c2cc(N3C(=O)c4ccccc4Oc4ccccc43)ccc21")
0.163
>>> observed_value("C=C(COC)/C(=C/C[C@@H](OC(=O)c1ccncc1)c1cccc(OCCO)c1)c1cnc2ccccc2c1")
1.04
>>> observed_value("COCCOC(=O)N1C(=O)[C@@]2(c3ccccc31)[C@H](c1ccc(OCCO)cc1)N1[C@H](c3ccccc3)[C@H](c3ccccc3)OC(=O)[C@H]1[C@@H]2C(=O)Nc1nc2ccccc2s1")
0.492
>>> observed_value("COCCOC(=O)N1C(=O)[C@@]2(c3cc(C#CC4=CCCCC4)ccc31)[C@H](C(=O)N1CCN(c3ncccn3)CC1)[C@H]1C(=O)O[C@H](c3ccccc3)[C@H](c3ccccc3)N1[C@@H]2c1ccc(O)cc1")
0.557
>>> observed_value("CN1C(=O)[C@@]2(CCS(=O)(=O)c3ccccc3)N=C(c3ccc(OCCCO)cc3)O[C@H]2c2ccccc21")
-0.0486
>>> observed_value("NC(=O)N1C(=O)C2C(C1=O)C1C=C(c3ccc(CO)cc3)C2C(C2CC2)N1Cc1sc2ccccc2c1Cl (configuration not stated)")
1.27
>>> observed_value("CO[C@H]1O[C@H](CO)[C@@H](OC(=O)c2ccc(Br)cc2)[C@@H]2OC(=O)[C@@H](Cc3ccc4ccccc4c3)C/C=C/C[C@H](Cc3ccc4ccccc4c3)C(=O)O[C@@H]12")
-0.255
>>> observed_value("CCOC(=O)C1=C[C@@H](c2ccccc2)N(S(=O)(=O)c2ccc(C)cc2)[C@H]1c1cccc(Cl)c1")
-0.0476
>>> observed_value("CC(C)(C)OC(=O)CC[C@]1(C(=O)NCCN2CCOCC2)N=C(c2ccc(OCCCO)cc2)O[C@H]1c1ccccc1")
-0.103
>>> observed_value("CCOC(=O)C1=CC[C@@H](c2cc(Cl)ccc2Cl)N(S(=O)(=O)c2ccc(C)cc2)[C@H]1c1ccc(OC)cc1")
-0.658
>>> observed_value("CO[C@H]1O[C@H](CO)[C@@H](OC(=O)Nc2ccc(Oc3ccccc3)cc2)[C@H](OC(=O)Nc2ccccc2-c2ccccc2)[C@@H]1OC(=O)Nc1ccccc1-c1ccccc1")
0.242
>>> observed_value("NCCCCCCNC(=O)[C@H]1C[C@H]2C(=O)N[C@@H](Cc3ccccc3)C(=O)N2[C@H]1c1ccc(O)cc1")
0.338
>>> observed_value("O=C(O)[C@H]1C[C@H]2C(=O)N3CCC[C@H]3C(=O)N2[C@H]1c1cccc(OCCO)c1")
0.266
>>> observed_value("CCCc1cccc(=O)o1")
0.427
>>> observed_value("O=C(CS)NCCCCCCNC(=O)[C@@H]1C[C@@H]2C(=O)N3CCC[C@H]3C(=O)N2[C@@H]1c1cccc(OCCO)c1")
0.289
>>> observed_value("Cc1ccc(S[C@]2(C(=O)NC(C)C)CC(=O)N(Cc3ccccc3C(F)(F)F)[C@@H]2c2ccc(CO)cc2I)cc1")
-0.796
>>> observed_value("COC(=O)[C@@]1(Cc2ccc(OC)cc2)[C@H]2c3cc(C(=O)N(C)C)n(Cc4nc5ccccc5[nH]4)c3C[C@H]2CN1C(=O)c1ccccc1")
-0.314
>>> observed_value("O=C1NCC(=O)N2[C@@H]1C[C@@H](C(=O)O)[C@H]2c1ccc(O)cc1")
0.834
>>> observed_value("COc1ccc([Si](C)(C)[C@@H]2[C@@H](CCO)O[C@]3(C(=O)N(Cc4cccc(N5C(=O)c6ccccc6Oc6ccccc65)c4)c4ccccc43)[C@H]2C)cc1")
-0.704
>>> observed_value("C=CCOC(=O)[C@@H]1[C@H]2C(=O)O[C@H](c3ccccc3)[C@H](c3ccccc3)N2[C@H](c2ccc(OCCOC(=O)[C@H]3C[C@H]4C(=O)N[C@@H](CCCCN(C)C)C(=O)N4[C@H]3c3cccc(OCCO)c3)cc2)[C@@]12C(=O)Nc1ccc(I)cc12")
0.724
>>> observed_value("CC(C)(C)N1CC=CC23O[C@@H]4C=CCOC(=O)[C@@H]4[C@H]2C(=O)N(CCCO)[C@@H]3C1=O (some centres not stated)")
-2.12
>>> observed_value("CC(C)(C)OC(=O)CC[C@]1(C(=O)N2CCOCC2)N=C(c2ccc(OCCCO)cc2)O[C@H]1c1ccccc1")
-0.356
>>> observed_value("COc1ccccc1CN1C(=O)c2ccccc2[C@](Cc2ccccc2I)(C(=O)NC(C)C)[C@@H]1c1ccc(CO)cc1")
0.242
>>> observed_value("COc1cc2c(cc1OC)CN(C(=O)[C@H]1[C@@H]3C(=O)O[C@@H](c4ccccc4)[C@@H](c4ccccc4)N3[C@@H](c3ccc(OCCO)cc3)[C@]13C(=O)Nc1ccc(C#CC4(O)CCCCCC4)cc13)CC2")
1.15

The reported numbers originate from PubChem BioAssay.
